Target: soluble guanylate cyclase (sGC) endogenously expressed in HEK293 cells (Homo sapiens, UniProt Q02108+Q02153)
Construct: endogenously expressing soluble guanylate cyclase (sGC); endogenous in cells
Sequence (Q02153 whole entry): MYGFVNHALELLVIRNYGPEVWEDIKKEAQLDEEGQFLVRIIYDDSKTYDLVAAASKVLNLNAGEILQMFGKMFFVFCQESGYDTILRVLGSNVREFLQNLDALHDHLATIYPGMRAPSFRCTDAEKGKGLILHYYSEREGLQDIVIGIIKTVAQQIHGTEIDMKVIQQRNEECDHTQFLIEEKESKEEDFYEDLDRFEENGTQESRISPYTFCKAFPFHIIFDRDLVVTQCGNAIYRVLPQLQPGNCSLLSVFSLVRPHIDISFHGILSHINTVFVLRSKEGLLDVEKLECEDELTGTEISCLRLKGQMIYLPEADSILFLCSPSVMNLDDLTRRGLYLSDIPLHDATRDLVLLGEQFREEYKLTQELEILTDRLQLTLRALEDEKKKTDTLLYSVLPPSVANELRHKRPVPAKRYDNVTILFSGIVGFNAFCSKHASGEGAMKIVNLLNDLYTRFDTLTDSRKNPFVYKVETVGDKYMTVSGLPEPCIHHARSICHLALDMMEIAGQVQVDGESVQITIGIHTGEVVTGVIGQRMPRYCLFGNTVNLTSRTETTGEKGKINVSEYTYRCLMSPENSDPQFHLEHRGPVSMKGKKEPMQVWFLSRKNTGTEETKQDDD
Sequence (Q02108 whole entry): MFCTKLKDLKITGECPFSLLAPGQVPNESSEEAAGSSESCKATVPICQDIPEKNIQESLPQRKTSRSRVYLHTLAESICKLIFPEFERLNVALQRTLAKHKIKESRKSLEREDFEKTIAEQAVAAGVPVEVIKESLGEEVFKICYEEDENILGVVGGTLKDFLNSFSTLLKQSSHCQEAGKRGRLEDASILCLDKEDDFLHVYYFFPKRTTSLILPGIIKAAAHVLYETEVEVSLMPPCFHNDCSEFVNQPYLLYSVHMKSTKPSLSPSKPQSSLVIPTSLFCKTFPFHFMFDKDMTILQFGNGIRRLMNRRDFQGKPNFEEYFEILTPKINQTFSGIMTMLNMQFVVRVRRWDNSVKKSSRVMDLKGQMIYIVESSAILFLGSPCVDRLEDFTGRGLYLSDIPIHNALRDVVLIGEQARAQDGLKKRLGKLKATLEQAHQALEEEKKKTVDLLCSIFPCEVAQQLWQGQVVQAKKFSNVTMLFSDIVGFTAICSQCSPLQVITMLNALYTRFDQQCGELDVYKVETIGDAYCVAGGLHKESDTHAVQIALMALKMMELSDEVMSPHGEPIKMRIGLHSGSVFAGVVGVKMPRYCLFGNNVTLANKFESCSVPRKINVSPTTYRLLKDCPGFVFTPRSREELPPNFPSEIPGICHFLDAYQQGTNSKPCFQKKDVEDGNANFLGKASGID
Experiment: sGC-HEK-cGMP assay with LC/MS detection (whole cell)
Settings: 10 μM DETA-NONOate, 20 min, concentration eliciting 50% of high control response (30 μM Compound Y), read-out: sGC_HEK_LC MS EC50 Abs
Protocol: Example 2: Biological Activity Measurement by the sGC-HEK-cGMP Assay, with LC/MS Detection Human embryonic kidney cells (HEK293), endogenously expressing soluble guanylate cyclase (sGC), were used to evaluate the activity of test compounds. Compounds stimulating the sGC enzyme should cause an increase in the intracellular concentration of cGMP. […] cGMP concentrations were determined from each sample using the LCMS conditions below (Table 2) and calculated standard curve. […]
pEC50: −log10 of the molar value.
quantity: pEC50

Worked cases, pEC50 given:
{"compound": "COc1cc(-c2ncc(F)c(N3CCC(O)(CO)CC3)n2)nn1Cc1ccccc1F [Compound I-61]", "pEC50": "≤ 6.00"}
{"compound": "COc1cc(-c2ncc(F)c(NCCS(N)(=O)=O)n2)nn1Cc1ccccc1F [Compound I-69]", "pEC50": "≤ 6.00"}
{"compound": "CCOC(=O)C1(C)C(=O)Nc2nc(-c3cc(OC)n(CCC(F)(F)F)n3)nc(N)c21 (centres unmarked) [Compound I-14]", "pEC50": "≤ 6.00"}
{"compound": "CC1(C(=O)NC2CC2)C(=O)Nc2nc(-c3cc(OC(F)F)n(Cc4cccc(F)c4F)n3)ncc21 (centres unmarked) [Compound I-40]", "pEC50": "6.00 to 7.00"}
{"compound": "O=c1[nH]c(-c2cc(OC(F)F)n(Cc3ccccc3F)n2)ncc1F [Compound I-4]", "pEC50": "≤ 6.00"}
{"compound": "COc1cc(-c2ncc(F)c(NCC(=O)O)n2)nn1Cc1ccccc1F [Compound I-9]", "pEC50": "≤ 6.00"}

Problem: // query pEC50 value for entry CCOC(=O)C1(C)C(=O)Nc2nc(-c3cc(OC(F)F)n(CCC(F)(F)C(F)(F)F)n3)nc(N)c21 (centres unmarked) [Compound I-57]
Result: ≤ 6.00

Problem: # iterate: CC1(C(N)=O)C(=O)Nc2nc(-c3cc(OC(F)F)n(Cc4ccccc4F)n3)nc(N)c21 (centres unmarked) [Compound I-71]
Result: 6.00 to 7.00

----------
Parameter EC50: see the listing below.
Biological target: soluble guanylate cyclase (sGC) endogenously expressed in HEK293 cells (Homo sapiens, UniProt Q02108+Q02153)
Construct: endogenously expressing soluble guanylate cyclase (sGC); endogenous in cells
Assay: sGC-HEK-cGMP assay with LC/MS detection (whole cell)
Conditions: 10 μM DETA-NONOate, 20 min, concentration eliciting 50% of high control response (30 μM Compound Y), read-out: sGC_HEK_LC MS EC50 Abs

{"molecule": "COc1cc(-c2ncc(F)c(N3CCNCC3)n2)nn1Cc1ccccc1F [Compound I-24]", "EC50": "≥ 1 µM"}
{"molecule": "COc1cc(-c2ncc(F)c(N3CCC(C)(C(=O)O)CC3)n2)nn1Cc1ccccc1F [Compound I-68]", "EC50": "0.101 to 1 µM"}
{"molecule": "COc1cc(-c2ncc(F)c(N(C)CC3(C(=O)O)CCCC3)n2)nn1Cc1ccccc1F [Compound I-66]", "EC50": "0.101 to 1 µM"}

Problem: // query EC50 value for entry Cn1c(-c2nc(N)c3c(n2)NC(=O)C3(C)C(N)=O)nn(Cc2ccccc2F)c1=O (centres unmarked) [Compound I-18]
Result: ≥ 1 µM

Problem: # iterate: COc1cc(-c2nccc(N)n2)nn1Cc1ccccc1F [Compound I-6]
Result: ≥ 1 µM

Problem: # iterate: C[C@H]1CCCN(c2nc(-c3cc(OC(F)F)n(Cc4ccccc4F)n3)ncc2F)[C@H]1C(=O)O [Compound I-42]
Result: 0.101 to 1 µM

Problem: # iterate: CCOC(=O)C1(C)C(=O)Nc2nc(-c3cc(OC(F)F)n(Cc4ccc(F)cc4F)n3)nc(N)c21 (centres unmarked) [Compound I-55]
Result: 0.101 to 1 µM

Problem: # iterate: COc1cc(-c2ncc(NC(=O)OCc3ccccc3)c(=O)[nH]2)nn1Cc1ccccc1F [Compound I-47]
Result: ≥ 1 µM
